System: BT-549
assay.details: NCI tumour cell line growth inhibition, 48 h
The source made the active and inactive calls. Rule as the data show it: active = GI50 up to about 1.1 µM and inactive = higher.

compound	GI50
O=P1(c2ccccc2)c2ccccc2-c2ccccc21	65.2 µM (inactive)
CCOC(=O)c1cc(-n2nnc3ccccc32)cn1C	> 10 µM (inactive)
Cc1ccc(C)c(N2C(=O)C(=O)c3c(C)ccc(C)c32)c1	19.5 µM (inactive)
N=c1oc2c(Br)cc(Br)cc2cc1C(=O)Nc1ccccn1	> 100 µM (inactive)
O=C1c2cc([N+](=O)[O-])ccc2-c2ccc3c4ccc5c6c(ccc(c7ccc1c2c73)c64)C(=O)c1cc([N+](=O)[O-])ccc1-5	> 100 µM (inactive)
COc1c(-c2ccc(O)c(O)c2)oc2c(O)c(O)cc(O)c2c1=O	> 100 µM (inactive)
Cc1ccc(C(=O)N2CCN(C(=O)c3ccc(C)cc3)c3ccccc32)cc1	> 100 µM (inactive)
Nc1csc(-c2scc3c2OCCO3)c1N	16.5 µM (inactive)
COc1cc2cc(C(=O)N3CC(CCl)c4c3cc([N+](=O)[O-])c3ccccc43)[nH]c2c(OC)c1OC (configuration not stated)	> 100 µM (inactive)
O=[N+]([O-])c1cc(C(F)(F)F)cc2n[se]nc12	2.81 µM (inactive)
c1ccc([P+](CCSCCSCC[P+](c2ccccc2)(c2ccccc2)c2ccccc2)(c2ccccc2)c2ccccc2)cc1	> 100 µM (inactive)
Clc1nc(Cl)nc(NC23CC4CC(CC(C4)C2)C3)n1	19.3 µM (inactive)
CC(=O)OC1CC[C@@]2(C)C(CC[C@]3(C)C2CC=C2[C@@H]4C(C)[C@H](C)CCC4(C)CCC23C)[C@@]1(C)C(=O)O (some centres not stated)	25 µM (inactive)
Cn1c(=O)c2c3ccccc3n(C)c2n(C)c1=O	> 100 µM (inactive)
O=C1CSC(=S)N1c1ccco1	16.3 µM (inactive)
CCOC(=O)C(C)c1nc2cc(N3CCOCC3)c(F)cc2[nH]c1=O (configuration not stated)	> 100 µM (inactive)
CC(C)(C)c1cc(OCc2nnc3sc(S)nn23)c(Cl)cc1OCc1nnc2sc(S)nn12	30.5 µM (inactive)
CCOC(=O)C(NC(=O)Nc1ccc(C)cc1)(OCC)C(F)(F)F (configuration not stated)	> 100 µM (inactive)
CCc1ccc2c(c1)/C(=C1/Nc3ccccc3/C1=N/O)C(=O)N2	8 µM (inactive)
Cc1cc(O)c(-c2cc(O)c(C)cc2O)cc1O	12.2 µM (inactive)
O=C(Nc1cccc2ccccc12)c1ccccc1	> 100 µM (inactive)
NC(=O)c1cc2ccccc2o/c1=N/O	> 100 µM (inactive)
